Data provenance is patent US20220079934A1.

target: wildtype TRKA (Homo sapiens)
Sequence (P04629 33-796): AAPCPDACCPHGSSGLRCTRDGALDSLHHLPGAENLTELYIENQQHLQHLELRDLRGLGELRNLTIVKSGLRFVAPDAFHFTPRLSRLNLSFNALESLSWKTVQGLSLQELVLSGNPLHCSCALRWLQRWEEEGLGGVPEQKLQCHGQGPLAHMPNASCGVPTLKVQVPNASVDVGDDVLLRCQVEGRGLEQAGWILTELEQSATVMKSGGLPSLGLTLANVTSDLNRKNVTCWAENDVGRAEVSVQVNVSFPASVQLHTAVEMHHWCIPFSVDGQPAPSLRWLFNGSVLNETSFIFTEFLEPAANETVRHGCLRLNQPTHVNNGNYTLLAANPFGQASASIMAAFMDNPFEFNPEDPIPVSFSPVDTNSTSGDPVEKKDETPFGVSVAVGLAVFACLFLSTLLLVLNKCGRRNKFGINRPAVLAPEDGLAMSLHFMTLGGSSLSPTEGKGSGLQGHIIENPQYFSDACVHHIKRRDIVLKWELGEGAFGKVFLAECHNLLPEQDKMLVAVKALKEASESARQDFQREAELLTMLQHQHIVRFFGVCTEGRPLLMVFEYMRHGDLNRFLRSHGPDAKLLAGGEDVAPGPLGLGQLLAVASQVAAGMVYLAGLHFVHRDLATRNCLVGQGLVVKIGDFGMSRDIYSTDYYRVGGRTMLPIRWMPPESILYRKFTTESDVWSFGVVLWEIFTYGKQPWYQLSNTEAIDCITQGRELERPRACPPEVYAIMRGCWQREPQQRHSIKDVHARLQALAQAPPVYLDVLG
measurement-kind: IC50

| compound | meas-value |
| --- | --- |
| CC1(COc2ccc3c(c2)ncn3-c2ccc3cccc(N4CCC(N)CC4)c3n2)COC1 [crenolanib besylate] | 31 nM |
